# Tested on: HIV-1 NNRTI-resistant mutant Y181C
# measurement.description: Single-round infectivity assay, Y181C
# Format: cell-based
# measurement.setup: Human immunodeficiency virus 1, read-out: EC50 Y181C
quantity.name: pEC50
In textbook form, pEC50 equals minus log to base ten of the concentration in mol/L.

# compound, target.under.test, pEC50
data = [
    ("Cc1cc(/C=C/C#N)cc(C)c1Nc1ccnc(Nc2ccc(C#N)cc2)n1 [RPV, rilpivirine, reference compound]", "HIV-1 NNRTI-resistant mutant Y181C", 8.85),
    ("Cn1c(Cn2ccc(C(F)(F)F)c(Oc3cc(Cl)cc(C#N)c3)c2=O)n[nH]c1=O [DOR, doravirine, reference compound]", "HIV-1 NNRTI-resistant mutant Y181C", 8.70),
    ("Cc1cc(/C=C/C#N)cc(C)c1-n1cnc2cnc(Nc3ccc(/C=C/C#N)cc3)nc21", "HIV-1 NNRTI-resistant mutant Y181C", 7.03),
    ("Cc1cc(/C=C/C#N)cc(C)c1Nc1ncc(N)c(Nc2c(C)cc(/C=C/C#N)cc2C)n1", "HIV-1 NNRTI-resistant mutant Y181C", 5.56),
]

Consider the record given below.
Query: pEC50; subject: Cc1cc(/C=C/C#N)cc(C)c1Nc1nc(Nc2ccc(/C=C/C#N)cc2)ncc1N 8.28

----------
CC50: recorded values
# measurement.description: Cellular cytotoxicity, ATP-dependent luminescence assay
# Format: cell-based
Please give a number only; it is taken to be in µM.

# compound, quantity.name, assay.value
data = [
    ("Cc1cc(/C=C/C#N)cc(C)c1Nc1ncc2ncn(-c3c(C)cc(/C=C/C#N)cc3C)c2n1", "CC50", 192),
]

Consider the additional compound presented here.
Return reported CC50; argument: Cc1cc(/C=C/C#N)cc(C)c1Nc1nc(Nc2ccc3cc(/C=C/C#N)ccc3c2)ncc1N 10.8

----------
# Test system: HIV-1 NNRTI-resistant mutant K103N/P225H
# measurement.description: Single-round infectivity assay, K103N/P225H
# Format: cell-based
# measurement.setup: Human immunodeficiency virus 1, read-out: EC50 K103N/P225H
Quick reference for pEC50 among some molecules
Just so you know, pEC50 here is -log10 of the concentration in molar units; reply with that number alone.

// below: answered molecules
# molecule, target.under.test, pEC50
records = [
    ("Cc1cc(/C=C/C#N)cc(C)c1Nc1ccnc(Nc2ccc(C#N)cc2)n1 [RPV, rilpivirine, reference compound]", "HIV-1 NNRTI-resistant mutant K103N/P225H", 9.22),
    ("Cn1c(Cn2ccc(C(F)(F)F)c(Oc3cc(Cl)cc(C#N)c3)c2=O)n[nH]c1=O [DOR, doravirine, reference compound]", "HIV-1 NNRTI-resistant mutant K103N/P225H", 7.60),
]

Kindly review the next molecule as well.
Value lookup for pEC50; key = Cc1cc(/C=C/C#N)cc(C)c1-n1cnc2cnc(Nc3ccc(/C=C/C#N)cc3)nc21 7.54

----------
# System: WT HIV-1
# measurement.description: Single-round infectivity assay, WT RT vector
# Type: cell-based
# measurement.setup: Human immunodeficiency virus 1, read-out: EC50 WT
quantity.name: pEC50
Hey, just a heads up that pEC50 is the negative log base 10 of the concentration in molar.

Observe how each entry below is paired with its result.
# compound, assay.value
data = [
    ("Cc1cc(/C=C/C#N)cc(C)c1Nc1nc(Nc2ccc3cc(/C=C/C#N)ccc3c2)ncc1N", 8.17),
    ("Cc1cc(/C=C/C#N)cc(C)c1-n1cnc2cnc(Nc3ccc4cc(C#N)ccc4c3)nc21", 8.64),
]

WT HIV-1 / pEC50 / Cc1cc(/C=C/C#N)cc(C)c1Nc1nc(Nc2ccc(/C=C/C#N)cc2)ncc1N : value? 8.92

Under WT HIV-1: pEC50 value of Cc1cc(/C=C/C#N)cc(C)c1Nc1ncc(N)c(Nc2c(C)cc(/C=C/C#N)cc2C)n1 ? 7.57
